test system: A549/ATCC NSCLC; assay: NCI-60 one-dose screen, 48 h (100 = growth as untreated, 0 = no growth, -100 = all killed); details: 10 µM unless noted
This is part of a sample that, as a whole, favours compounds with a hit. Of some 83,000 tested, about 20% had one in any assay.
Quick list: growth per entry.
Reply numerically in %, unit not repeated.

// query Request the reported growth associated with Cc1cc(O)c2cc3c(O)c(O)ccc3cc2c1
// result 117

// query I am curious: what growth value has been reported for O=c1c2cc(Cl)ccc2oc2ccc(OCCCCCN3CCCCC3)cc12 ?
// result 32.3

// query Which measured growth value corresponds to COc1cc(CN(c2ccc(C)cc2)C2OC(=O)c3ccccc32)cc(OC)c1OC (stereo unspecified) ?
// result 30.5

// query Record request: growth value, item O=C(CSc1nc2c(n1Nc1ccccc1)-c1ccccc1SC2)Nc1nccs1
// result 96.6

// query So what does the record say about growth for COc1ccc(N=C2CSc3nnc(-c4cc(F)c(Cl)cc4Cl)n3N2)cc1 ?
// result -21.1

// query Give its growth value. Item: CCCCCCCCCCCCCCCCCC(=O)[O][Sn]([CH2]CCC)([CH2]CCC)[CH2]CCC
// result -84.1

// query What value of growth has been reported for the following compound? CC(=O)C1CCC2C3CC(C)=C4CC(O)CCC4(C)C3CCC12C (stereo unspecified)
// result 99.6

====

tested on: KM12 colon; experiment: NCI-60 one-dose screen, 48 h; settings: 10 µM unless noted
The panel holds about 83,000 compounds, 20% with a hit somewhere; the sample as a whole holds those more often. The source made the active and inactive calls. The calls were made as follows: active = growth percent below 10; inactive = the rest.
Assign a class; possible classes are active, inactive

Illustrative cases are given below, each with its answer.
| Compound | Assigned category |
| --- | --- |
| O=C(/C=C/c1ccc(F)cc1)N1CCN(C(=O)/C=C/c2ccc(C(F)(F)F)cc2)CC1 | inactive |
| CCN(CC)CCNC(=O)n1cc(-c2ccncc2)c(-c2cc(Cl)cc(OC)c2)n1 | inactive |
| CCOC(=O)CCN(CCC(=O)OCC)c1ccccc1 | inactive |
| CCN(CC)c1ccc2c(cc1=O)[C@@H](NC(C)=O)CCc1cc(OC)c(OC)c(OC)c1-2 | active |
| COc1cc2ncnc(Nc3ccc(S(=O)(=O)Nc4nccs4)cc3)c2cc1OCCCN1CCOCC1 | inactive |
| Cc1nn(-c2ccccc2)c2nc3c(nc12)C1=NCCN1C(c1ccc(Cl)cc1)N3 (stereo unspecified) | inactive |
| CC(C)(C)[Si](C)(C)OC1[C@@H](O[Si](C)(C)C(C)(C)C)[C@@H](CNC(=O)NC(=O)NC(=O)CI)O[C@H]1n1cnc2c(NC(=O)Nc3ccccc3)ncnc21 (stereo partly specified) | inactive |
| COc1ccc(C2=NNC(c3ccc(Oc4nc5c(c(=O)n(C)c(=O)n5C)n4C)c(OC)c3)C2)cc1 (stereo unspecified) | inactive |
| COc1ccc(-c2cc(-c3cn(-c4cccc(Cl)c4)nc3-c3ccc(OC)cc3)[nH]c(=S)n2)cc1 | inactive |
| CCNCCCn1c2c(c3ccc(Cl)cc3c1=O)C(=O)c1cc(OC)cnc1-2 | inactive |

// query How did this test come out for CC(C)[C@@H]1C=C2CC[C@H]3[C@](C)(CN)CCC[C@]3(C)[C@H]2CC1 ?
// result inactive

// query Any idea what this test logged for O=c1c2cc(Br)cc(Br)c2nc(-c2ccc(Cl)cc2)n1/N=C\c1ccccc1F ?
// result inactive

// query I would be grateful if you could indicate the recorded call for Fc1ccc(-c2cnc3nonc3n2)c(F)c1 .
// result inactive

====

tested on: HCT-116 colon; test: NCI-60 one-dose screen, 48 h (100 = growth as untreated, 0 = no growth, -100 = all killed); conditions: 10 µM unless noted
The panel holds about 83,000 compounds, 20% with a hit somewhere; the sample as a whole holds those more often.
Output Yes for growth not less than 40%; output No otherwise.

Solved cases below.
| Compound | Study system | Assigned category |
| --- | --- | --- |
| CN1C2CCC1/C(=C\c1ccc(Cl)cc1)C(=O)/C2=C/c1ccc(Cl)cc1 | HCT-116 colon | No |
| CCCCn1cnc2c(SCc3ccc([N+](=O)[O-])cc3)nc(N)nc21 | HCT-116 colon | Yes |
| C/C(=N\Nc1ccc([N+](=O)[O-])cn1)c1ccc(N)cc1 | HCT-116 colon | Yes |
| CC[C@]1(O)C[C@H]2CN(CCc3c([nH]c4ccccc34)C(C(=O)OC)(c3cc4c(cc3OC)N(C)[C@H]3[C@@](O)(C(=O)OC)[C@H](OC(C)=O)[C@]5(CC)[C@@H]6C[C@@H]6CN6CC[C@]43[C@@H]65)C2)C1 (some centres undefined) | HCT-116 colon | No |
| CC(C)(c1ccccc1)c1cc(O)c(C(C)(C)c2ccccc2)cc1O | HCT-116 colon | No |
| COc1ccc(-c2conc2-n2nc(-c3ccccc3)nc2-c2ccccc2)cc1 | HCT-116 colon | Yes |
| CC(=O)O[C@H]1CC[C@]2(C)[C@H]3CC=C4[C@@H]5CC(C)(C)CC[C@]5(C(=O)OCC(COC(=O)C(Cl)Cl)(COC(=O)C(Cl)Cl)NC(=O)C(Cl)Cl)CC[C@@]4(C)[C@]3(C)CC[C@H]2C1(C)C | HCT-116 colon | No |
| O=[N+]([O-])c1ccc(N/N=C/c2ccccc2O)nc1 | HCT-116 colon | No |

// query Is reported growth greater than or equal to 40% here: COc1ccc(Cl)cc1Nc1nc(C(F)(F)F)ccc1C(=O)NN
// result No

====

system: MDA-MB-231 breast; assay: NCI-60 one-dose screen, 48 h (100 = growth as untreated, 0 = no growth, -100 = all killed); conditions: 10 µM unless noted
About 83,000 compounds went through this panel and 20% of them were active in at least one assay; those are over-represented in the sample as a whole.
Endpoint: growth (%)
Respond with the bare value in %.

// query Find the recorded growth belonging to CCN1C(=O)C(C)C=C(C)C=C1C (stereo unspecified) and report it.
// result 112

// query Suppose we examine the compound Fc1cc(-c2cnc3nonc3n2)c(Cl)cc1Cl ; what growth value has been reported?
// result 83.4

====

Test system: OVCAR-5 ovarian
Assay: NCI-60 one-dose screen, 48 h
Settings: 10 µM unless noted
Experimental: Growth inhibition of the OVCAR-5 human tumor cell line is measured as a screen for anti-cancer activity. Cells are grown in 96 well plates and exposed to the test compound for 48 hours. Compounds are tested at a single concentration, which is 10^-5 M for most compounds. The reported endpoint is percent growth (GI% or GIPRCNT), where numbers from 0 - 100% represent growth inhibition, and numbers from -100% - 0 represent cell death. For example, a value of 40 represents 60% growth inhibition. […]
About 83,000 compounds went through this panel and 20% of them were active in at least one assay; those are over-represented in the sample as a whole. The source made the active and inactive calls. The calls were made as follows: active = growth percent below 10; inactive = the rest.
The categories you may choose from are yes (active), no (inactive)

// known answers, use as guide
| Molecule | Assigned category |
| --- | --- |
| Cc1cc(-c2ccc(N=Nc3c(S(=O)(=O)O)cc4cc(S(=O)(=O)O)cc(O)c4c3O)c(C)c2)ccc1N=Nc1c(S(=O)(=O)O)cc2cc(S(=O)(=O)O)cc(O)c2c1O | no |
| COc1cccc(/C(C)=N/NC(=O)CSc2nc3ccccc3c(=O)n2CCc2ccc(S(N)(=O)=O)cc2)c1 | no |
| CN1C(=O)C(C(=O)/C=C/c2ccccc2C(=O)O)C(=O)N(C)C1=O | no |

Read the next record carefully.
// query Call for entry CCN(CC)c1cc(C)c(Cc2c(OC)ccc3ccccc23)cc1C :
// result no

====

growth values by entry
test system: HCC-2998 colon; assay: NCI-60 one-dose screen, 48 h (100 = growth as untreated, 0 = no growth, -100 = all killed); conditions: 10 µM unless noted
Compounds without any hit were thinned out: in the full panel of roughly 83,000, 20% have a hit.
Write it as a number; the unit % goes unstated.

Worked set:
| Molecule | Study system | Endpoint | Meas value |
| --- | --- | --- | --- |
| CCOC(=O)N1C2CCC(C2)N1C(=O)OCC | HCC-2998 colon | growth | 104 |
| COc1ccc2c(c1)sc1nc(-c3ccccc3)c(-c3cccc4ccccc34)n12 | HCC-2998 colon | growth | -26.8 |
| CCN(CC)c1ccc(/C=N/N=C(N)N)cc1 | HCC-2998 colon | growth | 85.5 |
| COc1ccc(-n2c(COc3ccc(F)cc3)n[nH]c2=S)cc1 | HCC-2998 colon | growth | 113 |
| CCCCOc1nc2ccc(C)cc2cc1/C=C/C(=O)/C=C(O)/C=C/c1cc2cc(C)ccc2nc1OCCCC | HCC-2998 colon | growth | 108 |
| CCOC(=O)c1cnc(SCC)nc1SC#N | HCC-2998 colon | growth | 108 |

// query # get_value(readout= growth, system= HCC-2998 colon) for O=C1C(Cl)=C(Nc2cccc3ccccc23)C(=O)c2ccccc21
// result 103

// query # returns recorded growth (system: HCC-2998 colon) for CN(C)CCCn1c(=O)c2cc([N+](=O)[O-])ccc2c2cnc3[nH]ccc3c21
// result 60

// query Form field - read-out: growth; system: HCC-2998 colon; submitted item: OC(COCc1ccccc1)COCc1ccccc1
// result 97.9

// query Observed growth on HCC-2998 colon for COc1cc(/C=C2\CN(C(=O)OC(C)(C)C)C/C(=C\c3ccc(O)c(OC)c3)C2=O)ccc1O , please.
// result 106

// query Notebook entry, HCC-2998 colon assay: growth of COc1cc(/C=N/NC(=O)Cn2c(-c3ccc(C)o3)nc3ccccc32)ccc1OCc1ccccc1 = ?
// result 103

// query Identify the measured growth of CC(C)(C)c1cc(C[P+](c2ccccc2)(c2ccccc2)c2ccccc2)cc(C(C)(C)C)c1O for HCC-2998 colon.
// result 14.6

// query Which growth is reported with HCC-2998 colon for this entry: CC(=O)C1CCC2C3CC(C)=C4CC(O)CCC4(C)C3CCC12C (stereo unspecified) ?
// result 98.8

// query # get_value(readout= growth, system= HCC-2998 colon) for CCSc1cnnc2ccccc12
// result 101

// query // lookup growth | system=HCC-2998 colon | key= COc1ccc(Oc2nc(Nc3ccc(N4CCOCC4)cc3)ncc2NC(=O)Nc2cccc(OC)c2)cc1
// result 40.3
